Attribution: PubChem BioAssay (NCI)

tested on: ACHN renal; experiment: NCI tumour cell line growth inhibition, 48 h
METRIC: GI50

O=c1c(I)c[nH]cc1I = > 100000 nM
NNc1c(C(N)=O)c2c(N)ncnc2n1C1OC(CO)C(O)C1O (stereo not drawn) = 16.7 nM

Here is the next item to consider.
[ask] Consider the compound shown here: "O=C1C(Cl)=C(Nc2ccc(S(=O)(=O)c3ccc(NC4=C(Cl)C(=O)c5ccccc5C4=O)cc3)cc2)C(=O)c2ccccc21" What is its recorded GI50?
[reply] 1310 nM

---

test system: LOX IMVI melanoma; test: NCI tumour cell line growth inhibition, 48 h
METRIC: TGI

Field: example entries. Status: answers known.
CO[C@@]12C[C@H](CNC(=O)c3ccc[nH]3)O[C@@H]1NC(=O)N2 = > 100 µM
O=C(C[N+]12CN3CN(CN(C3)C1)C2)c1ccc(-c2ccccc2)cc1 = 30.6 µM

Alright, here's another compound for you.
[ask] Write down the reported TGI of COC(=O)/C=C(C)/C=C\COC1CCCCO1 (stereo not drawn) , test system: LOX IMVI melanoma.
[reply] > 100 µM

---

system: A549 NSCLC; experiment: NCI tumour cell line growth inhibition, 48 h
METRIC: TGI

Reference set, count: 5
CC[C@H](C)[C@H](NC(=O)[C@H]1CCCCN1C)C(=O)N(C)[C@H](CCc1nc(C(=O)N[C@@H](Cc2ccccc2)C[C@H](C)C(=O)O)cs1)C(C)C = > 25 µM
CCCCNc1ncnc2c1cnn2-c1ccccc1 = > 92.8 µM
CC(C)(Oc1ccc(-c2cccc3ccccc23)cc1)C(=O)O = > 100 µM
C=CCC(N[C@@H](CO)c1ccccc1)c1ccc2ccccc2n1 (some centres undefined) = > 100 µM
N[C@@H]1CCCN(c2c(Br)cnc3[nH]cc(NC(=O)C4CC4)c23)C1 = > 100 µM

[ask] Could you share which TGI value was measured for "CC(=O)N[C@@H](Cc1ccc(O)cn1)C(=O)NCc1ccc(Cl)cc1" ?
[reply] > 100 µM

---

system: CAKI-1 renal; assay: NCI tumour cell line growth inhibition, 48 h
Here the recorded TGI is given for each entry.

Reference set, count: 5
CCOC(=O)C(C)c1nc2cc(F)c(F)cc2[nH]c1=O (configuration not stated) = > 100 µM
COc1cc(C2CC(c3ccccc3)=NN2C=O)ccc1Oc1ccnc2cc(Cl)ccc12 (configuration not stated) = > 100 µM
COc1cc2c(c(OC)c1OC)-c1cc(I)c(O)cc1[C@@H](NC(C)=O)CC2 = > 100 µM
Cc1ccc(/C=c2\cc3oc(=O)c4cccc(c4-3)c2=O)cc1 = > 100 µM
O=C1Cc2cc3ccccc3nc2-c2ccccc2N1 = > 100 µM

[ask] Please provide the recorded TGI for "C[N+](C)(CCNc1ccc(NCC[N+](C)(C)Cc2ccc([N+](=O)[O-])cc2)c2c1C(=O)c1c(O)ccc(O)c1C2=O)Cc1ccc([N+](=O)[O-])cc1" , tested on CAKI-1 renal.
[reply] > 50 µM

[ask] // map "COc1cc2c(c(OC)c1OC)C(=O)c1c(O)cc(C)c(OC)c1C2=O" to recorded TGI (system: CAKI-1 renal)
[reply] > 100 µM

[ask] Record lookup: for CAKI-1 renal, what TGI belongs to CC(C)(O)C1COC2=C1C(=O)c1ccccc1C2=O (configuration not stated) ?
[reply] > 100 µM

[ask] Identify the measured TGI of "Cc1ccc(C(=O)N/N=C(\N=Nc2ccc([N+](=O)[O-])cc2)c2ccc(N(CCC#N)CCC#N)cc2C)cc1" for CAKI-1 renal.
[reply] > 100 µM

[ask] # returns recorded TGI (system: CAKI-1 renal) for "CN(C(=O)Cc1ccccc1)n1cn[n+](CC(=O)OC(C)(C)C)c1"
[reply] > 10 µM

---

tested on: U251 CNS; assay: NCI tumour cell line growth inhibition, 48 h
Listed compounds paired with reported TGI

Sample answers from the record:
Cc1cc(C)c2nc3c(c(C(O)C4CCCCN4)c2c1)CC/C3=C\c1ccc(Cl)cc1 (centres undefined) = > 100 µM
COC(=O)Cc1cc(=O)n2c3ccccc3n(C)c2c1C#N = > 100 µM
CC(=O)O[C@H]1[C@@H](N2CCOCC2)C[C@H]2[C@@H]3CC=C4C[C@@H](N5CCCC5)CC[C@]4(C)[C@H]3CC[C@@]21C = > 100 µM

Shift focus to the following entry.
[ask] Requested read-out: TGI. Entry: "CC(=O)c1cc2c(N)c(C(=O)Nc3cccc4ccccc34)sc2nc1C"
[reply] > 50 µM

---

tested on: OVCAR-8 ovarian; experiment: NCI tumour cell line growth inhibition, 48 h
Recorded TGI for the following molecules

// below: answered molecules
Cc1nc2c(C)ccc([N+](=O)[O-])c2c(NCCCN(C)C)c1C = > 71.6 µM
C[N+](C)(CCNc1ccc(NCC[N+](C)(C)Cc2ccc([N+](=O)[O-])cc2)c2c1C(=O)c1c(O)ccc(O)c1C2=O)Cc1ccc([N+](=O)[O-])cc1 = > 50 µM
O=P(CN1CCOCC1)(c1ccccc1)c1ccccc1 = > 100 µM
CN(C)C(=O)C(F)(F)C(c1ccccc1Br)C1C(=O)N(C)C(=O)N(C)C1=O (stereo unspecified) = > 100 µM
O=C(/C=C/c1ccc(-c2ccccc2)cc1)NCc1ccc(C(=O)NCCc2ccccc2)cc1 = > 100 µM

[ask] What measured TGI goes with "O=C(O)CNc1ccc2c(c1)Cc1cc(Br)ccc1-2" ?
[reply] > 100 µM

[ask] Given the entry Nc1nc(Cl)c2ncn(CCCC(c3ccccc3)P(=O)(O)O)c2n1 (stereo unspecified) , report its measured TGI.
[reply] > 100 µM

[ask] Which TGI value belongs to "Nc1nc(Cl)c(CO)c(NCC2(CO)CCC2)n1" ?
[reply] > 100 µM

[ask] Name the reported TGI value associated with the molecule "Cc1ccc(C2=CC(=O)/C(=C\C(=O)c3ccc(Br)cc3)O2)c(C)c1"
[reply] 19 µM

[ask] Any idea what TGI was measured for "Cc1cc(N(CCC#N)CCC#N)ccc1/C=C(\NC(=O)/C=C/c1ccccc1)C(=O)Nc1ccccc1Cl" ?
[reply] > 100 µM

[ask] Which measured TGI value corresponds to "Cc1c(C#N)c2nnn(-c3cccc(Cl)c3)c(=O)n2c1-c1ccccc1" ?
[reply] > 100 µM

---

system: MALME-3M melanoma; experiment: NCI tumour cell line growth inhibition, 48 h
METRIC: GI50

S=c1ssnc1-c1cc2ccccc2o1 = 20.7 µM
COc1cc2ncn(-c3cc(OCc4ccccc4C(F)(F)F)c(C(N)=O)s3)c2cc1OC = 14.5 µM
COc1cccc(C2CC(=O)Nc3c2c(C)nn3-c2nc3ccccc3[nH]2)c1OC (centres undefined) = 7.97 µM

Let us move to another entry and its GI50.
[ask] Quick check: GI50 on MALME-3M melanoma, item "COC(=O)c1c(C)nc(C)c2c1C(=O)C(Br)=C(NCc1ccccc1)C2=O" ?
[reply] 1.47 µM

---

test system: UACC-62 melanoma; test: NCI tumour cell line growth inhibition, 48 h
Items are presented alongside their recorded TGI.

Cc1c(Cl)ccc2c1NC(=O)C2(O)CC(=O)c1ccc(Cl)cc1 (stereo not drawn) = > 71.5 µM
CC[C@H](C)[C@H](NC(=O)C12C3C4C1C1C2C3C41NC)C(=O)N(C)[C@H](C[C@@H](OC(C)=O)c1nc(C(=O)N[C@@H](Cc2ccccc2)C[C@H](C)C(=O)OC)cs1)C(C)C (stereo partly drawn) = > 14.3 µM
O=C(/C=C/c1ccc(-c2ccccc2)cc1)NCc1ccc(C(=O)NCCc2ccccc2)cc1 = > 100 µM

[ask] Entry "Cc1sc(/N=C/C2=C(O)CC(C)(C)CC2=O)nc1-c1ccccc1" has what TGI?
[reply] > 100 µM

[ask] Any idea what its TGI is? The molecule is C=C1OC2OC(C)C(NC(=O)OCC(Cl)(Cl)Cl)C(OC(C)=O)C2O1 (stereo not drawn)
[reply] > 100 µM

[ask] Any idea what its TGI is? The molecule is "Clc1ccc(C=Nc2ccc(-c3nc4ccccc4[nH]3)cc2)cc1"
[reply] > 100 µM

[ask] What TGI value was documented for this molecule, "CC(C)(C)OC(=O)Cn1ncn(NC(=O)Cc2ccccc2)c1=S" ?
[reply] > 10 µM

[ask] Which TGI reading was recorded for the molecule "COC(=O)c1c(C(=O)OC)c(-c2ccccc2)n(-c2ccccc2)c(=O)c1-c1ccccc1" ?
[reply] > 100 µM

[ask] // query TGI value for entry Nc1ncn([C@H]2CC(O)[C@@H](CO)S2)c(=O)n1 (stereo partly drawn)
[reply] > 100 µM

[ask] So what's the measured TGI for this one? CCOC(=O)N1c2ccccc2C(C)=CC(C)C1C (stereo not drawn)
[reply] > 100 µM

[ask] Given the molecule "Cn1c(=O)c(-c2ccccc2Cl)cc2cnc(NC3CCOCC3)nc21" , what is its reported TGI?
[reply] > 25 µM

[ask] Look up TGI for this molecule: "COc1cc(C(=O)c2cnc(-c3c[nH]c4cccc(C)c34)[nH]2)cc(OC)c1OC"
[reply] > 100 µM

[ask] May I ask what TGI has been recorded for "O=C(/C=C/c1ccccc1)c1ccc(Cl)cc1Cl" ?
[reply] 30 µM

[ask] Returns the measured TGI for the input molecule. Input: "CCN(CC)CCOC(COc1cc(C)cc(C)c1)COc1cc(C)cc(C)c1"
[reply] 4.61 µM

[ask] Param item = "CC(C)c1cc(=O)[nH]c2cc(N)ccc12" ; retrieve measured TGI.
[reply] > 100 µM

[ask] Entry under review: "Clc1ccc(-c2cn3c(nc4ccccc43)c(-c3ccccc3)n2)cc1" . Reported TGI?
[reply] 26.7 µM

[ask] So what does the record say about TGI for "CCCCCCCCCCCC/C=C\CC[C@@H](O)[C@H](O)CC[C@H](O)[C@@H]1CC[C@@H](CCCCCCCC2=C[C@H](C)OC2=O)O1" ?
[reply] 6.45 µM

[ask] Endpoint output: TGI of "Cc1cc(N(CCC#N)CCC#N)ccc1/C=C(\NC(=O)/C=C/c1ccccc1)C(=O)Nc1ccccc1Cl" . Value?
[reply] > 100 µM

[ask] Data request, read-out TGI, for "O=CN1CCN(c2ccc3ccc(=O)[nH]c3n2)CC1"
[reply] > 100 µM

[ask] Value lookup for TGI; key = C=CCOCC1C2CCC3(OCCO3)C21 (stereo not drawn)
[reply] > 100 µM

[ask] Consider the molecule CCOC(=O)C(C)c1nc2cc(F)c(F)cc2[nH]c1=O (stereo not drawn) and give its measured TGI.
[reply] > 100 µM

[ask] Fill in: TGI of "CCc1ccc2c(c1)C(=O)c1c-2n(CCCN)c(=O)c2cc(OC)c(OC)cc12" is ___
[reply] 3.32 µM
